# target.under.test: cynomolgus Siglec-2/CD22 (Macaca fascicularis, UniProt A0A2K5WCZ6)
# Sequence (A0A2K5WCZ6 entry or part of it): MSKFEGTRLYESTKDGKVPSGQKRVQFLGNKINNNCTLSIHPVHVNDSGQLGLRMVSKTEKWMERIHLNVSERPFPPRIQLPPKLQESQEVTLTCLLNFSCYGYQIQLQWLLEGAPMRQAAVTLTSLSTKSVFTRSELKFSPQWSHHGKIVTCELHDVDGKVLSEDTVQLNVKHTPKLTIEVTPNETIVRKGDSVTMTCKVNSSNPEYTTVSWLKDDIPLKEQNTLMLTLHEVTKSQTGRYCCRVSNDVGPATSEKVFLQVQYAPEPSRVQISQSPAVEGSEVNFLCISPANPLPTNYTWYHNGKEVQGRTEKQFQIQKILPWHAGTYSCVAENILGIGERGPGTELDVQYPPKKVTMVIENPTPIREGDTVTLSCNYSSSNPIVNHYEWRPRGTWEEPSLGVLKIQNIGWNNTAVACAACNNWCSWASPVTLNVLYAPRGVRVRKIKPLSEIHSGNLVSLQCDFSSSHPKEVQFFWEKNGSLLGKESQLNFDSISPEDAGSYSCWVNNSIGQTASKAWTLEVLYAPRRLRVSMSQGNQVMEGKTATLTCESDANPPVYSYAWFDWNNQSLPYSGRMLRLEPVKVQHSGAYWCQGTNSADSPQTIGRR
# test.summary: biochemical
# assay.setup: SPR, steady-state analysis; read-out: Affinity cyno CD22
Would you mind telling me the reported Kd of each entry?

Guide cases for Kd, answers given:
* C#CCOCCOCCO[C@]1(C(=O)O)C[C@H](O)[C@@H](NC(=O)CO)[C@H]([C@H](O)[C@H](O)CNC(=O)c2ccccc2O)O1 [Compound 28] | > 10000 nM
* CC(=O)NCCOCCOCCOCCOCCNC(=O)CCCCCCO[C@]1(C(=O)O)C[C@H](O)[C@@H](NC(=O)CO)[C@H]([C@H](O)[C@H](O)CNC(=O)Cc2ccc(-c3nnn[nH]3)cc2)O1 [Cpd. 266] | < 1000 nM
* C#CCOCCOCCO[C@]1(C(=O)O)C[C@H](O)[C@@H](NC(=O)CO)[C@H]([C@H](O)[C@H](O)CNC(=O)Cc2ccc(-c3ccc4[nH]ccc4c3)cc2)O1 [Compound 4] | < 1000 nM
* C#CCOCCCCCCO[C@]1(C(=O)O)C[C@H](O)[C@@H](NC(=O)CN)[C@H]([C@H](O)[C@H](O)CNC(=O)Cc2ccc(Cl)cc2)O1 [Compound 184] | 1000 to 10000 nM
* CC(=O)NCCOCCOCCOCCOCCC(=O)NCCCCCCO[C@]1(C(=O)O)C[C@H](O)[C@@H](NC(C)=O)[C@H]([C@H](O)[C@H](O)CNC(=O)c2cccc(Cl)c2)O1 [Compound 271] | 1000 to 10000 nM
* C#CCOCCCCCCO[C@]1(C(=O)O)C[C@H](O)[C@@H](NCC(=O)NC)[C@H]([C@H](O)[C@H](O)CNC(=O)Cc2ccc(Cl)cc2)O1 [Compound 181] | 1000 to 10000 nM

Consider the following items and state reported Kd for each.
1. C#CCCOc1ccc(CO[C@]2(C(=O)O)C[C@H](O)[C@@H](NC(=O)CO)[C@H]([C@H](O)[C@H](O)CNC(=O)Cc3ccc(Cl)cc3)O2)cc1 [Compound 124]
2. C#CCOCCOCCO[C@]1(C(=O)O)C[C@H](O)[C@@H](NC(=O)CO)[C@H]([C@H](O)[C@H](O)CNC(=O)C[C@H]2CC[C@@H](O)CC2)O1 [Compound 200]
3. CCCNC(=O)CCOCCOCCOCCn1cc(CCOc2ccc(CO[C@]3(C(=O)O)C[C@H](O)[C@@H](NC(N)=O)[C@H]([C@H](O)[C@H](O)CNC(=O)Cc4ccc(Cl)cc4)O3)cc2)nn1 [Compound 222]
4. C#CCOc1ccc(CO[C@]2(C(=O)O)C[C@H](O)[C@@H](NC(=O)CO)[C@H]([C@H](O)[C@H](O)CNC(=O)Cc3ccc(-c4ccc(O)cc4)c(Cl)c3)O2)cc1 [Compound 47]
5. CC(=O)NCCOCCOCCOCCOCCNC(=O)CCCCCCO[C@]1(C(=O)O)C[C@H](O)[C@@H](NC(=O)CO)[C@H]([C@H](O)[C@H](O)CNC(=O)Cc2ccc(C(F)F)cc2)O1 [Cpd. 257]

a:
1000 to 10000 nM
> 10000 nM
< 1000 nM
< 1000 nM
< 1000 nM

Consider the following items and state reported Kd for each.
1. C#CCCOc1ccc(CO[C@]2(C(=O)O)C[C@H](O)[C@@H](NC(=O)CO)[C@H]([C@H](O)[C@H](O)CNC(=O)Cc3ccc4[nH]c(=O)[nH]c4c3)O2)cc1 [Compound 7]
2. CC(=O)NCCOCCOCCOCCOCc1cn(CCOCCOCCO[C@]2(C(=O)O)C[C@H](O)[C@@H](NC(=O)CO)[C@H]([C@H](O)[C@H](O)CNC(=O)Cc3ccc(Cl)cc3)O2)nn1 [Cpd. 260]
3. C#CCCOc1ccc(CO[C@]2(C(=O)O)C[C@H](O)[C@@H](NC(=O)CO)[C@H]([C@H](O)[C@H](O)CNC(=O)Cc3ccc(-c4ccc(NC(C)=O)cc4)cc3)O2)cc1 [Compound 50]
4. C#CCCOc1ccc(CO[C@]2(C(=O)O)C[C@H](O)[C@@H](NC(=O)CO)[C@H]([C@H](O)[C@H](O)CNC(=O)Cc3cccc(-c4cccc(O)c4)c3)O2)cc1 [Compound 45]

a:
1: > 10000 nM; 2: 1000 to 10000 nM; 3: 1000 to 10000 nM; 4: 1000 to 10000 nM

---

# target.under.test: cynomolgus Siglec-2/CD22 (Macaca fascicularis, UniProt A0A2K5WCZ6)
# test.summary: biochemical
# assay.setup: SPR, steady-state analysis; read-out: Affinity cyno CD22
pKd: −log10 of the molar value.
assay.endpoint: pKd

Guide cases for pKd, answers given:
* C#CCOCCCCCCO[C@]1(C(=O)O)C[C@H](O)[C@@H](NC(=O)CO)[C@H]([C@H](O)[C@H](O)CNC(=O)Cc2ccc(C(F)F)cc2)O1 | > 6.00
* C#CCOCCOCCNc1c(NCCCCCCO[C@]2(C(=O)O)C[C@H](O)[C@@H](NC(=O)CO)[C@H]([C@H](O)[C@H](O)CNC(=O)C(F)(F)c3ccccc3)O2)c(=O)c1=O [Compound 275] | > 6.00
* O=C(Cc1ccc(Cl)cc1)NC[C@@H](O)[C@@H](O)[C@@H]1O[C@@](OCCCCCCNC(=O)c2ccccc2)(C(=O)O)C[C@H](O)[C@H]1NC(=O)CO | > 6.00
* C#CCN(CC(=O)O)C(=O)CCCCCO[C@]1(C(=O)O)C[C@H](O)[C@@H](NC(=O)CO)[C@H]([C@H](O)[C@H](O)CNC(=O)Cc2ccc(Cl)cc2)O1 | > 6.00

Turning now to a further compound:
q: What value of pKd has been recorded for this entry: C#CCOCCOCCO[C@]1(C(=O)O)C[C@H](O)[C@@H](NS(=O)(=O)NC)[C@H]([C@H](O)[C@H](O)CNC(=O)Cc2ccc(-c3ccc(O)cc3)cc2)O1
a: < 5.00

---

# target.under.test: human Siglec-2/CD22 protein (Homo sapiens)
# Sequence (P20273 20-847): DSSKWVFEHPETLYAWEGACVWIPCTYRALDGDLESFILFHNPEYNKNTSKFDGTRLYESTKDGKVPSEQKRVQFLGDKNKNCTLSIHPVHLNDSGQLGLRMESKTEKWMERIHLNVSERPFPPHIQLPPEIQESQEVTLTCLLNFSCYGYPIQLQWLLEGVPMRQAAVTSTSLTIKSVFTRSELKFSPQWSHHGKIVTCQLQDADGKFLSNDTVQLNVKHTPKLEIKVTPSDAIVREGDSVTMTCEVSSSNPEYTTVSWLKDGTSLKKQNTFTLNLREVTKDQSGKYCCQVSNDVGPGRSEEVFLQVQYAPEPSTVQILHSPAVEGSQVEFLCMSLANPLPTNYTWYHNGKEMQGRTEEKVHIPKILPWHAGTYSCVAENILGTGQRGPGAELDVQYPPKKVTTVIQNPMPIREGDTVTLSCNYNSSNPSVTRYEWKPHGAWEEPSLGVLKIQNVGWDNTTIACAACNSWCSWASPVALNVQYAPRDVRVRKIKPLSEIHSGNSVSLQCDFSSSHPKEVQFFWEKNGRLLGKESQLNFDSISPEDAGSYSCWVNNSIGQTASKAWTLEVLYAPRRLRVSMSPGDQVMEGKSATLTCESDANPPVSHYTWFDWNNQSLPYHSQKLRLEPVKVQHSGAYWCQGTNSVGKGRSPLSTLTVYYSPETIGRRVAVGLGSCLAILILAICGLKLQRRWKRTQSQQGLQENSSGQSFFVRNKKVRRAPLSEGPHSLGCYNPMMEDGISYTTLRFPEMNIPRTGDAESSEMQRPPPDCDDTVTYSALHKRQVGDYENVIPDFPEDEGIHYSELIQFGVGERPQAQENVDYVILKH
# test.summary: SPR binding affinity to human CD22
# assay.setup: steady-state analysis
assay.endpoint: Kd

Guide cases for Kd, answers given:
• CC(=O)NCCOCCOCCOCCOCCC(=O)NCCCCCCO[C@]1(C(=O)O)C[C@H](O)[C@@H](NC(=O)CO)[C@H]([C@H](O)[C@H](O)CNC(=O)Cc2ccc(Cl)cc2)O1 [Cpd. 244] = < 1 µM
• C#CCOCCOCCO[C@]1(C(=O)O)C[C@H](O)[C@@H](NC(=O)CO)[C@H]([C@H](O)[C@H](O)CNC(=O)c2ccc(O)cc2)O1 [Compound 198] = > 10 µM

Turning now to a further compound:
q: What value of Kd has been recorded for this entry: C#CCCOc1ccc(CO[C@]2(C(=O)O)C[C@H](O)[C@@H](NC(=O)CO)[C@H]([C@H](O)[C@H](O)CNC(=O)Cc3ccc(O)c(Cl)c3)O2)cc1 [Compound 136]
a: < 1 µM

---

Would you mind telling me the reported Kd of each entry?
# target.under.test: cynomolgus Siglec-2/CD22 (Macaca fascicularis, UniProt A0A2K5WCZ6)
# test.summary: biochemical
# assay.setup: SPR, steady-state analysis; read-out: Affinity cyno CD22

Guide cases for Kd, answers given:
* CC(=O)NCCOCCOCCOCCOCCNc1c(NCCCCCCO[C@]2(C(=O)O)C[C@H](O)[C@@H](NC(=O)CO)[C@H]([C@H](O)[C@H](O)CNC(=O)Cc3ccc(Cl)cc3)O2)c(=O)c1=O | < 1 µM
* C#CCCCCCCO[C@]1(C(=O)O)C[C@H](O)[C@@H](NC(=O)CO)[C@H]([C@H](O)[C@H](O)CNC(=O)Cc2ccc(C(F)F)cc2)O1 | < 1 µM
* CC(=O)NCCOCCOCCOCCOCCC(=O)NCCOCCOCCO[C@]1(C(=O)O)C[C@H](O)[C@@H](NC(=O)CO)[C@H]([C@H](O)[C@H](O)CNC(=O)Cc2ccc(Cl)cc2)O1 | 1 to 10 µM

Consider the following items and state reported Kd for each.
1. C#CCOCCCCCCO[C@]1(C(=O)O)C[C@H](O)[C@@H](NCC(=O)N(C)C)[C@H]([C@H](O)[C@H](O)CNC(=O)Cc2ccc(Cl)cc2)O1
2. C#CCOCCOCCO[C@]1(C(=O)O)C[C@H](O)[C@@H](NC(=O)CO)[C@H]([C@H](O)[C@H](O)CNC(=O)c2ccc(O)cc2)O1

a:
1 to 10 µM
> 10 µM
